// reported EC50 for each item listed
# target entity: PPARG/RXRA LBD heterodimer (Homo sapiens, UniProt P37231)
# Construct: His-TEV-Q203-Y477; Uniprot ID P37231-2; made in house; host or cells: E. coli
# Sequence (P37231 231-505): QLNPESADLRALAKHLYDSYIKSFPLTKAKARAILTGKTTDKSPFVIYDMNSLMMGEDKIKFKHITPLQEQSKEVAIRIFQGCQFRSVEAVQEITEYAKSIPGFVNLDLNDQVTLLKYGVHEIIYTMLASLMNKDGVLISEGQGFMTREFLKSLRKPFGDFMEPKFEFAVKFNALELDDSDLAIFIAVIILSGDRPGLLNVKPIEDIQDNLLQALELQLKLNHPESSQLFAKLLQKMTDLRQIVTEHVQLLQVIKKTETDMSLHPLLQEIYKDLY
# Sequence (P19793 228-462 partner limits assumed): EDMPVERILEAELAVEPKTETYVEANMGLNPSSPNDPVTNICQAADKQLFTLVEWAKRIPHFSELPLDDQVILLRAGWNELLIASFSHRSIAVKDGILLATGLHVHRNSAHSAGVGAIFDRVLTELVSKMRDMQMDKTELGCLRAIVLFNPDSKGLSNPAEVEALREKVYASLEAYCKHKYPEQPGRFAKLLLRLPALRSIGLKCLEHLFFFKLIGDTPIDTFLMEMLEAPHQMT
# measurement description: PPARγ-MED1 blockade assay (TR-FRET)
# Assay type: biochemical
# test settings: TR-FRET, MED1 LxxLL peptide, 80 nM Rosiglitazone, 3 hours

CN(C)C(=O)[C@@H]1CCCN(c2c(F)cc3[nH]c(-c4cc(C#N)ncc4Cl)cc(=O)c3c2F)C1 [Example 22]; 10 to 100 nM
CN1CCN(c2c(F)cc3[nH]c(-c4nc(C#N)ccc4Cl)cc(=O)c3c2F)CC1 [Example 13]; 10 to 100 nM
CN(C)C(=O)[C@@H]1CCN(c2c(F)cc3[nH]c(-c4cc(C#N)ncc4Cl)cc(=O)c3c2F)C1 [Example 25]; < 10 nM

Consider now this further compound.
Task: Report EC50 for CN1CCC(c2c(F)cc3[nH]c(-c4cc(C#N)ncc4Cl)cc(=O)c3c2F)CC1 [Example 20]
Result: 10 to 100 nM
